Assay: In vivo pharmacokinetic analysis, single dose, ICR mice
Conditions: mouse, male, plasma, PO Administration (10 mg/kg), single dose
measured property: AUC(0-inf) (ng·h/mL)

| smiles notation | recorded value |
| --- | --- |
| COc1cc(Nc2nc(-c3ccc4cc[nH]c4c3)cn3ncnc23)ccc1N1CCOCC1 | 2260 |
| c1nc2c(Nc3ccc(N4CCOCC4)cc3)nc(-c3ccc4cc[nH]c4c3)cn2n1 | 28500 |
| COc1cc(Nc2nc(-c3ccc4cn[nH]c4c3)cn3ncnc23)ccc1N1CCN(C2COC2)CC1 | 151 |

P: COc1cc(Nc2nc(-c3ccc4cn[nH]c4c3)cn3ncnc23)ccc1N1CCC(C)(O)CC1
Q: c1nc2c(Nc3ccc(N4CCN(C5COC5)CC4)cc3)nc(-c3ccc4cc[nH]c4c3)cn2n1
R: COc1cc(Nc2nc(-c3ccc4cc[nH]c4c3)cn3ncnc23)ccc1N1CCN(C2COC2)CC1
S: c1nc2c(Nc3ccc(N4CCN(C5COC5)CC4)cc3)nc(-c3ccc4cn[nH]c4c3)cn2n1
T: COc1cc(Nc2nc(-c3ccc4cn[nH]c4c3)cn3ncnc23)ccc1N1CCOCC1
Arrange the 5 compounds by rising AUC(0-inf), starting with the smallest. Submit the labels in the order that the ranking request calls for.
P, T, R, S, Q
